# System: bacteria
# test.details: in vitro antibacterial activities, agar plate dilution method (MIC)
# Format: cell-based
# condition.label: Staphylococcus aureus, 16 h, S. aureus MB 4970; Mueller Hinton agar, inoculum 10⁶ CFU/mℓ, 37°C for 16 hours; read-out: Minimum Inhibitory Concentration(MIC)
readout.type: MIC (µg/mL)

molecule: C[C@@H](O)[C@H]1C(=O)N2C(C(=O)O)=C(S[C@@H]3CN[C@H](/C=C/C(N)=O)C3)[C@H](C)[C@H]12 [BO-2171, reference compound]
readout.type: MIC
units.symbol: µg/mL
operator.symbol: =
observed: 0.025
//
molecule: C[C@@H](O)[C@H]1C(=O)N2C(C(=O)O)=C(S[C@@H]3CN[C@H](/C=C\CN)C3)[C@H](C)[C@H]12 [Example 2]
readout.type: MIC
units.symbol: µg/mL
operator.symbol: =
observed: 0.012
//
molecule: CNC/C(C)=C\[C@@H]1C[C@H](SC2=C(C(=O)O)N3C(=O)[C@H]([C@@H](C)O)[C@H]3[C@H]2C)CN1.Cl [Example 9]
readout.type: MIC
units.symbol: µg/mL
operator.symbol: <
observed: 0.006
//
molecule: C/C(=C/[C@@H]1C[C@H](SC2=C(C(=O)O)N3C(=O)[C@H]([C@@H](C)O)[C@H]3[C@H]2C)CN1)CN.Cl [Example 7]
readout.type: MIC
units.symbol: µg/mL
operator.symbol: <
observed: 0.006
